- ASSAYED SYSTEM: T1, ANTIBODY EXPRESSION CONTROL
- T1 construct: also called mouse anti-canine antibody (capture reagent of the expression control ELISA)
- RUN DESCRIPTION: SPR Biacore, expression control
Below, each entry is listed with its recorded kon.
MEASUREMENT NAME: kon (M⁻¹ s⁻¹)

INSERT INTO measurements (binder, reported) VALUES
  ('Mu_10F07_VH (SEQ ID NO: 39)_D99A (antibody, V domains shown) VH: DVKLVESGEGLVKPGGSLKLSCAASGFTFSSYAMSWVRQTPEKRLEWVTYISSGGDYFYYADTVKGRFTISRDNARNTLYLQMSSLKSEDTAMYYCTRAPITGTFAYWGQGTLVTVSA VL: DIQMTQTTSSLSASLGDRVTISCRASQDITNYLNWYQQKPDGTVKLLIYYTSTLHSGVPSRFSGSGSGTDFSLTISNLEQEDIATYFCQQGHMLPWTFGGGTKLEIKR', 117000),
  ('Mu_02D09_VL (SEQ ID NO: 33)_S56A (antibody, V domains shown) VH: EVQLVESGGGLVKPGGSLTLSCAASGFTFSDYGMHWLRQAPEKGLEWVAYISSGSRAVFFADTVKGRFTISRDNAKNTLFLQMTSLRSDDTAMYYCARDRYDGRGFAYWGQGTLVTVSA VL: DIVLTQSPATLSVTPGDSVSLSCRASQSISNNLHWYQQTSHESPRLLITYASQSIAGIPSRFSGSGSGTDFTLSINSVETEDFGMYFCQQSNSWPLTFGAGTKLELKR', 132000),
  ('Mu_10F07_VL (SEQ ID NO: 41)_T53A (antibody, V domains shown) VH: DVKLVESGEGLVKPGGSLKLSCAASGFTFSSYAMSWVRQTPEKRLEWVTYISSGGDYFYYADTVKGRFTISRDNARNTLYLQMSSLKSEDTAMYYCTRDPITGTFAYWGQGTLVTVSA VL: DIQMTQTTSSLSASLGDRVTISCRASQDITNYLNWYQQKPDGTVKLLIYYTSALHSGVPSRFSGSGSGTDFSLTISNLEQEDIATYFCQQGHMLPWTFGGGTKLEIKR', 132000),
  ('Mu_10F07_VL (SEQ ID NO: 41)_L33A (antibody, V domains shown) VH: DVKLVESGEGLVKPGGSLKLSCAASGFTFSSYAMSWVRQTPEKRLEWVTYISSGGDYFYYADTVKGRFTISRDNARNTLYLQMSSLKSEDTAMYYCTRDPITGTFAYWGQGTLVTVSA VL: DIQMTQTTSSLSASLGDRVTISCRASQDITNYANWYQQKPDGTVKLLIYYTSTLHSGVPSRFSGSGSGTDFSLTISNLEQEDIATYFCQQGHMLPWTFGGGTKLEIKR', 104000),
  ('Mu_09E09_VH (SEQ ID NO: 35)_P100A (antibody, V domains shown) VH: DVKLVESGEGLVKPGGSLKLSCAASGFTFSSYAMSWVRQTPEKRLEWVAYISSGGDYIYYADTVKGRFTISRDNARNTLYLQMSSLKSEDTAMYYCTRDAITGTFAYWGQGTLVTVSA VL: DLQMTQTTSSLSASLGDRVTISCRASQDINNYLNWYQQKPDGTVKLLIYYTSTLHSGVPSRFSGSGSGTDYSLTISNLEQEDIATYFCQQGNTLPWTFGGGTKLEIKR', 300000);
